experiment: Stability in human cryopreserved hepatocytes without and with cimetidine or thiabendazole (Example 6); settings: human, cryopreserved hepatocytes (suspension), with thiabendazole 100 µM, CLint, substrate 1 μM, thiabendazole 100 μM
Measured Metric: hepatocyte CLint at 1 µM
Remember to follow the number with its unit.

Input: Requested read-out: hepatocyte CLint at 1 µM. Entry: CCOc1ccc2ccc(=O)oc2c1
Output: 4.05 µL/min/1e6 cells

* * *

experiment: in vitro; conditions: human, cryopreserved hepatocytes (suspension), with fluvoxamine 10 μM
Measured Metric: half-life at 1 μM (h)
Please reply with the bare figure in h and do not write the unit itself.

Input: Reported half-life at 1 μM, compound COC(=O)Nc1nc2ccc(C(=O)c3ccccc3)cc2[nH]1 [Mebendazole] : ____
Output: 30.7
